# Test system: MS2 coat protein
# PROTOCOL_SUMMARY: apparent Kd, MS2 coat protein; higher = weaker binding; RNA-MaP array; FMN 200 µM where present
# MEASUREMENT_CONDITIONS: designed as: OFF switch for flavin mononucleotide; no ligand
ENDPOINT_LABEL: apparent Kd (nM)
Report as a plain number; the unit nM is understood.

UUUUAGCGAGGAUAUACAUUUUUUUUAUUAUCCUCAUUAUUACAUGAGGAUCACCCAUGUAGAAGGCGCAUUUU    41
CGUUGGUCAGGAUAUGGUGGGCUGGUCGCGCGGCCGGGUGGCUAGAAGGGACAUGAGGAUCACCCAUGUACGGC    21.5
GCUCGGAGAGGAUAUACAUGAGGAUCACCCAUGUAGGUAAGCAGCGAUGGCAGUCCAUGUAGAAGGUUCAGGUG    43.4

The record that follows has no apparent Kd shown yet.
What does the data say about its apparent Kd? Entry: UCAGUAGAGUCAGGAUAUACCGAAAAGAAUCCUCACAUGAGGAUCACCCAUGUAGAAGGGACUCUACUGUAAGUCGGAAACGAC
91.8

###

# Tested on: MS2 coat protein
# PROTOCOL_SUMMARY: apparent Kd, MS2 coat protein; higher = weaker binding; RNA-MaP array; theophylline 2 mM where present
# MEASUREMENT_CONDITIONS: ligand present: theophylline; designed as: ON switch for theophylline
Each item that follows carries a reported apparent Kd.
Report as a plain number; the unit µM is understood.

What does the data say about its apparent Kd? Entry: UGUAUGUGAUGUGAUACCAGUCCAAUACUGGUAACAUGAGGAUCACCCAUGUAAUGAUGGGACCCUUGGCAGCACAUCGCAUACU
0.111

What does the data say about its apparent Kd? Entry: UGUAUGUGAUCUGAUACCAGUCCAACUGGUAAAACAUGAGGAUCACCCAUGUAAAAUUGGGACCCUUGGCAGCAGAUCGCAUACU
0.0284

What does the data say about its apparent Kd? Entry: AUCGUACCUGAUGAUACCAGCAUGUGAUCAUAACAUGAGGAUCACCCAUGUAAUCAGUGAUGCCCUUGGCAGCAUGAUCGGUACA
0.0263

What does the data say about its apparent Kd? Entry: UUAAGAGGCUAUCCACUUUGAUUUUGUGAUACCAGAAUAAUUUUAUUCCCUUGGCAGCAUGACAUGAGGAUCACCCAUGUGUCUU
0.0724

What does the data say about its apparent Kd? Entry: GGCACUCUGUAAGAUACCAGACGUCGGUGCUUACAUGAGGAUCACCCAUGUUGCUUUUUAGUCCCUUGGCAGCUUCGGAUAACCA
0.147

What does the data say about its apparent Kd? Entry: ACAUGAGGAUCACCCAUGUCACGGCACGAUACCAGCUGAUCCGGUGGCCCUUGGCAGCGUGACGUUUGGUCCCGCGGAUCACACG
0.0386

What does the data say about its apparent Kd? Entry: AAAAUAAAUAAAACGCGUAACAUGAAGGAUACCAGCCAGAAAACUGGCCCUUGGCAGCCUCUACAUGAGGAUCACCCAUGUCGCG
0.0296

###

Each item that follows carries a reported apparent Kd.
# System: MS2 coat protein
# PROTOCOL_SUMMARY: apparent Kd, MS2 coat protein; higher = weaker binding; RNA-MaP array; theophylline 2 mM where present
# MEASUREMENT_CONDITIONS: designed as: OFF switch for theophylline; no ligand
Report as a plain number; the unit nM is understood.

What does the data say about its apparent Kd? Entry: GAUGAACUAUUCGAUACCAGACUACAUGAGGAUCACCCAUGUGUGUCAAUUUCUCAGUCAGUCCCUUGGCAGCGAAUAGUUUAUC
38.2

What does the data say about its apparent Kd? Entry: UACAUGAGGAUCACCCAUGUAUGAAUAGAUACCAGAUAAAAUAAGGUCCCUUGGCAGCUAGUGAAUCGAGGGUGGGUAUCAUGAU
10.4

What does the data say about its apparent Kd? Entry: CAGAGCUACCGGGAUACCAGAAUUGGUAUUCCUAUAUUUCUUACAUGAGGAUCACCCAUGUUCCCUUGGCAGCUUGGUAGCUCUG
80.9

What does the data say about its apparent Kd? Entry: AUACCGAGUGAGUCGUGUUUCUUUUCAGAUACCAGACUUUUCGUUGUCCCUUGGCAGCUGUUUUACAUGAGGAUCACCCAUGUUG
18.2
